Below: a set of entries, each annotated with reported normalized growth.
# Protocol Summary: chemical genetic growth profiling, strain panel (AID 1159580);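 further: tested at 20 µM; growth read once vehicle control cultures reached saturation at 30 °C; 1 = growth at the plate median or of vehicle wells; lower values mean less growth of the strain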
# Condition Summary: S. cerevisiae deletion strains, growth OD, locus YLR384C, strain iki3, active compounds read low
The campaign covered roughly 5,500 compounds. About 2,000 (36%) were called active. Inconclusive results (about 18%) are left out. This is one part of the list.
The response must contain the number and no unit.

Recorded results for 3 compounds are shown here.
Compound: CC(Oc1ccccc1)C(=O)N[C@@H]1C(=O)N2[C@@H]1SC(C)(C)[C@@H]2C(=O)O (some centres not stated)
normalized growth: 0.992
--
Compound: COc1cc2c(cc1OC)[C@@H]1C(=O)c3ccc(O)c(CC=C(C)C)c3O[C@@H]1CO2
normalized growth: 0.971
--
Compound: COc1ccc2c(C)cc(=O)oc2c1
normalized growth: 0.996

The recorded normalized growth for COc1cc2c(cc1OC)[C@@H]1C(=O)c3ccc4oc(C(C)C)cc4c3O[C@@H]1CO2 is 0.993

CC(=O)OC(C)(C)[C@@H]1Cc2cc3ccc(=O)oc3cc2O1 yielded normalized growth of 0.979

Form field normalized growth, entry COc1ccc2c(c1)OCc1c-2oc2cc(OC)ccc12 : 1.01

Form field normalized growth, entry CN(C)CC/C=C1\c2ccccc2Sc2ccc(Cl)cc21 : 0.987

So for CC(=O)O[C@H]1[C@@H]2[C@@H](OC(=O)Cc3ccccc3)[C@@H](C)C[C@]2(OC(C)=O)C(=O)/C(C)=C/[C@H]2[C@H](CC[C@@]13CO3)C2(C)C , the logged normalized growth turned out to be 0.983

For record COc1cc(O)c(C(=O)/C=C/c2ccccc2)c(OC)c1 the listed normalized growth is 0.947

Recorded result, COc1cc(/C=C/C(=O)/C=C(O)/C=C/c2ccc(O)c(OC)c2)ccc1O , normalized growth: 0.155

For O=C(O)c1cc2ccccc2c(Cc2c(O)c(C(=O)O)cc3ccccc23)c1O the compound record lists normalized growth as 0.988

Record COc1cc2c(cc1OC)C(=O)OC2 , field normalized growth: 0.988

Per the record, Cc1cc(O)c(C=O)c(O)c1C(=O)O has normalized growth of 0.999

Form field normalized growth, entry CCOC(=O)c1c(C)c(Cl)c(O)c(Cl)c1O : 0.681

Consider CCOC(=O)c1c(C)cc(O)c(C=O)c1O . Its measured normalized growth is 0.718

So for C=C1C2CC[C@H]3[C@]4(C)C[C@H](OC5OC(CO)C(OS(=O)(=O)O)C(OS(=O)(=O)O)C5OC(=O)CC(C)C)C[C@@H](C(=O)O)[C@H]4CC[C@]3(C2)[C@H]1O (some centres not stated) , the logged normalized growth turned out to be 0.991

Sure, the documented normalized growth for CCCCCCCCCCCCCCCC[N+](C)(C)C is 0.0599

###

# Protocol Summary: chemical genetic growth profiling, strain panel (AID 1159580);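 further: tested at 20 µM; growth read once vehicle control cultures reached saturation at 30 °C; 1 = growth at the plate median or of vehicle wells; lower values mean less growth of the strain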
# Condition Summary: S. cerevisiae deletion strains, growth OD, locus YAL026C, strain drs2, active compounds read low
The whole screen tested about 5,500 compounds, of which about 2,000 (36%) were called active. Not shown: some 18% with an inconclusive outcome. This is one part of the list.
Recorded Endpoint: normalized growth

Reference set (2 entries):
Molecule: CO[C@H]1[C@H](O)[C@H](O[C@H]2CC[C@]3(C)C4CC[C@]5(C)C(C6=CC(=O)OC6)CC[C@]5(O)C4CC[C@@H]3C2)O[C@@H](C)[C@@H]1O (some centres undefined)
normalized growth: 1.01 (inactive)
//
Molecule: CCCCCCCCCCCCCCCC(=O)OC/C=C(C)/C=C/C=C(C)/C=C/C1=C(C)CCCC1(C)C
normalized growth: 1.02 (inactive)

Briefly, normalized growth measured for CCOC(=O)C(C)(C)Oc1ccc(Cl)cc1 : 0.989 (inactive)

Form: molecule = CC1=C(/C=C/C(C)=C/C=C/C(C)=C/C=C/C=C(C)/C=C/C=C(C)/C=C/C(=O)[C@]2(C)C[C@@H](O)CC2(C)C)C(C)(C)C[C@H](O)C1 ; normalized growth = 1.06 (inactive)

The reported value for COc1ccc2c(c1)OCc1c-2oc2cc(OC)ccc12 in terms of normalized growth is 0.764 (active)

The value of normalized growth measured for the molecule CC1=C(/C=C/C(C)=C/C=C/C(C)=C/C=C/C=C(C)/C=C/C=C(C)/C=C/C2=C(C)C(=O)C(O)CC2(C)C)C(C)(C)CC(O)C1=O (centres undefined) turned out to be 1.07 (inactive)

The molecule CN1CCc2cc3c(cc2[C@H]1C1OC(=O)c2c1ccc1c2OCO1)OCO3 (some centres undefined) showed normalized growth equal to 0.989 (inactive)

Per the records, this molecule ( COP(=O)(OC)OC=C(Cl)Cl ) has normalized growth equal to 0.993 (inactive)
